B1: STX11 (parent)
chain: FQRAMHDYNQAEMKQRDNCKIRIQ

Variants of: B1
Test: protein stability index of a GFP-peptide fusion (GPS, HEK-293T) (PSI 1-6); higher = more stable;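 further: lentivirally expressed fusions sorted by FACS into six bins by GFP to DsRed ratio, PSI derived from sequencing read proportions per bin multiplied by bin number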
Conditions: c terminus: a fixed tail appended
Reported protein stability index values are given for each entry in this list.

SEQUENCE_CHANGE | protein stability index
F1L | 3.29
R3M | 1.62
R16G | 3.37
I23R | 2.74
A4G | 2.19
Q24E | 3.17
F1W | 3.69
M5P | 2.64
C19D | 2.85
A4L | 2.46
M5I | 2.16
M5T | 3.15
Y8R | 2.61
R22M | 2.8
H6Y | 3.26
Q15H | 2.57
F1A | 3.87
A11Q | 2.42
A4Q | 3.56
R16S | 2.41
D17L | 2.1
M5D | 3.65
N9Q | 2.64
